The reported numbers originate from patent US20230219886A1.

- System: DU-145 (prostate carcinoma)
- Method Notes: MTT cell viability assay, DU-145
- Setup Conditions: Homo sapiens, DU-145, 48 h, read-out: cell viability
Measured Property: viability at 25 µM (%)

Compound | Numeric Readout
Cc1cccc(Nc2ccccc2C(=O)O)c1C [Mf, mefenamic acid, reference compound] | 100
COc1ccc2c(c1)c(CC(=O)[Se]C)c(C)n2C(=O)c1ccc(Cl)cc1 | 34.5
COc1ccc2cc([C@H](C)C(=O)[Se]C)ccc2c1 | 35
C[Se]C(=O)c1cc(-c2ccc(F)cc2F)ccc1O | 40.7
COc1ccc2c(c1)c(CC(=O)O)c(C)n2C(=O)c1ccc(Cl)cc1 [Inn, indomethacin, reference compound] | 97.6
C[Se]C(=O)c1ccccc1Nc1cccc(C)c1C | 29.7
CC(=O)Oc1ccccc1C(=O)O [ASA, aspirin, reference compound] | 85.3
CC1=C(CC(=O)O)c2cc(F)ccc2/C1=C\c1ccc([S+](C)[O-])cc1 (stereo not shown) [Sulin, sulindac, reference compound] | 83.2
O=C(O)c1cc(-c2ccc(F)cc2F)ccc1O [Dfl, diflunisal, reference compound] | 71.5
C[Se]C(=O)c1ccccc1OC(C)=O | 35.9
